# Study system: UniProtKB P11511
# Sequence (P11511 1-503): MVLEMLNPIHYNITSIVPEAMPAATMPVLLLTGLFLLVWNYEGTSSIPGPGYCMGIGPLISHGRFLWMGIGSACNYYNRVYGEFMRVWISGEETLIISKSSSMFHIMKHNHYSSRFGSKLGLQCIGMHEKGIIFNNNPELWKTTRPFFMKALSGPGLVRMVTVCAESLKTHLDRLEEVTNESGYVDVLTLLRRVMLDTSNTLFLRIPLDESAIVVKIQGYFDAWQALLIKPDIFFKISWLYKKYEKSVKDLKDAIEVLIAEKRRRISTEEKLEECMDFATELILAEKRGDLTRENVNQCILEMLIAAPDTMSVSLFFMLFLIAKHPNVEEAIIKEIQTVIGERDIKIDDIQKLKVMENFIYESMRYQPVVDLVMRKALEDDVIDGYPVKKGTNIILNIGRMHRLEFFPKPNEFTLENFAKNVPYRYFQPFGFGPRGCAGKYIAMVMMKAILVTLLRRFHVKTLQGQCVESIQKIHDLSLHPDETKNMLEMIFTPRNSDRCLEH
Counter-ions that a name gives are not always drawn.
Property name: pIC50
pIC50 here: minus log base 10 of the concentration, concentration in moles per litre.

# count of solved cases: 10
c1cn(-c2nc(N3CCSCC3)nc(-n3ccnc3)n2)cn1: 7.37
CCOC(=O)C1CCN(c2nc(N3CCOCC3)nc(-n3ccnc3)n2)CC1: 7.62
CC1CN1c1nc(N2CCOCC2)nc(-n2ccnc2)n1 (centres unmarked): 7.24
c1cn(-c2nc(N3CCOCC3)nc(N3CCSCC3)n2)cn1: 7.96
c1cn(-c2nc(N3CCOCC3)nc(N3CCSC3)n2)cn1: 8.18
c1cn(-c2nc(N3CCCC3)nc(N3CCCC3)n2)cn1: 6.51
c1ccc(CN2CCN(c3nc(N4CCOCC4)nc(-n4ccnc4)n3)CC2)cc1: 7.77
O=[N+]([O-])c1ccc(N2CCN(c3nc(N4CCOCC4)nc(-n4ccnc4)n3)CC2)cc1: 8.14
Nc1ccc(N2CCN(c3nc(N4CCOCC4)nc(-n4ccnc4)n3)CC2)cc1 [hydrochloride of No. 57]: 7.51
c1ccc(N2CCN(c3nc(N4CCOCC4)nc(-n4ccnc4)n3)CC2)nc1: 7.96

Could you now look at the following compound, please?
Qu. Recorded pIC50 for "CN(c1ccccc1)c1nc(N2CCOCC2)nc(-n2ccnc2)n1" , please?
Ans. 8.17
